# target desc: Protein arginine N-methyltransferase 1 (Homo sapiens)
# Sequence (Q99873 whole entry): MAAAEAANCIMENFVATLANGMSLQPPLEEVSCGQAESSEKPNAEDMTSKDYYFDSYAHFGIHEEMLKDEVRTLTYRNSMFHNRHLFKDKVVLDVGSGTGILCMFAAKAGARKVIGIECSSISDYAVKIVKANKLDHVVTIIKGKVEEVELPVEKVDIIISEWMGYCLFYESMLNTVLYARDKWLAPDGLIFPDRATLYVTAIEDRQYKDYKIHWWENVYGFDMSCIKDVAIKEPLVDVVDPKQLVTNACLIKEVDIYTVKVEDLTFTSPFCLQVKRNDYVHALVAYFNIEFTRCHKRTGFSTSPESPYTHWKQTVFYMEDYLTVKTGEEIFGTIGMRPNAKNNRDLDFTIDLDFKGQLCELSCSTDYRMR
# protocol text: Inhibition of human recombinant GST-PRMT1 expressed in BL21 cells
Recorded IC50, one value per entry.

Sample records with IC50:
[
  {
    "compound": "O=C1NC(=O)C(=Nn2c(=O)[nH]c(=O)[nH]c2=O)C(=O)N1",
    "result": "> 164 µM"
  },
  {
    "compound": "O=C1NS(=O)(=O)c2ccccc21 [SACCHARIN]",
    "result": "> 510 µM"
  },
  {
    "compound": "CC1=C(CN(CC(=O)O)CC(=O)O)C(=O)C(C(C)C)=C/C1=C(\\c1ccccc1S(=O)(=O)O)c1cc(C(C)C)c(O)c(CN(CC(=O)O)CC(=O)O)c1C",
    "result": "> 34 µM"
  }
]

Here's the next entry for you.
response.value for CC1=CC(=O)C(C(C)C)=C/C1=C(/c1cc(C(C)C)c(O)cc1C)c1ccccc1C(=O)O (field: IC50) = > 217 µM
